- target-or-test-system: T1, Clostridium difficile toxin A (TcdA) (Clostridium difficile, UniProt P16154 1-2710)
- T1 construct: mature; also called full-length TcdA
- T1 sequence (P16154 whole entry): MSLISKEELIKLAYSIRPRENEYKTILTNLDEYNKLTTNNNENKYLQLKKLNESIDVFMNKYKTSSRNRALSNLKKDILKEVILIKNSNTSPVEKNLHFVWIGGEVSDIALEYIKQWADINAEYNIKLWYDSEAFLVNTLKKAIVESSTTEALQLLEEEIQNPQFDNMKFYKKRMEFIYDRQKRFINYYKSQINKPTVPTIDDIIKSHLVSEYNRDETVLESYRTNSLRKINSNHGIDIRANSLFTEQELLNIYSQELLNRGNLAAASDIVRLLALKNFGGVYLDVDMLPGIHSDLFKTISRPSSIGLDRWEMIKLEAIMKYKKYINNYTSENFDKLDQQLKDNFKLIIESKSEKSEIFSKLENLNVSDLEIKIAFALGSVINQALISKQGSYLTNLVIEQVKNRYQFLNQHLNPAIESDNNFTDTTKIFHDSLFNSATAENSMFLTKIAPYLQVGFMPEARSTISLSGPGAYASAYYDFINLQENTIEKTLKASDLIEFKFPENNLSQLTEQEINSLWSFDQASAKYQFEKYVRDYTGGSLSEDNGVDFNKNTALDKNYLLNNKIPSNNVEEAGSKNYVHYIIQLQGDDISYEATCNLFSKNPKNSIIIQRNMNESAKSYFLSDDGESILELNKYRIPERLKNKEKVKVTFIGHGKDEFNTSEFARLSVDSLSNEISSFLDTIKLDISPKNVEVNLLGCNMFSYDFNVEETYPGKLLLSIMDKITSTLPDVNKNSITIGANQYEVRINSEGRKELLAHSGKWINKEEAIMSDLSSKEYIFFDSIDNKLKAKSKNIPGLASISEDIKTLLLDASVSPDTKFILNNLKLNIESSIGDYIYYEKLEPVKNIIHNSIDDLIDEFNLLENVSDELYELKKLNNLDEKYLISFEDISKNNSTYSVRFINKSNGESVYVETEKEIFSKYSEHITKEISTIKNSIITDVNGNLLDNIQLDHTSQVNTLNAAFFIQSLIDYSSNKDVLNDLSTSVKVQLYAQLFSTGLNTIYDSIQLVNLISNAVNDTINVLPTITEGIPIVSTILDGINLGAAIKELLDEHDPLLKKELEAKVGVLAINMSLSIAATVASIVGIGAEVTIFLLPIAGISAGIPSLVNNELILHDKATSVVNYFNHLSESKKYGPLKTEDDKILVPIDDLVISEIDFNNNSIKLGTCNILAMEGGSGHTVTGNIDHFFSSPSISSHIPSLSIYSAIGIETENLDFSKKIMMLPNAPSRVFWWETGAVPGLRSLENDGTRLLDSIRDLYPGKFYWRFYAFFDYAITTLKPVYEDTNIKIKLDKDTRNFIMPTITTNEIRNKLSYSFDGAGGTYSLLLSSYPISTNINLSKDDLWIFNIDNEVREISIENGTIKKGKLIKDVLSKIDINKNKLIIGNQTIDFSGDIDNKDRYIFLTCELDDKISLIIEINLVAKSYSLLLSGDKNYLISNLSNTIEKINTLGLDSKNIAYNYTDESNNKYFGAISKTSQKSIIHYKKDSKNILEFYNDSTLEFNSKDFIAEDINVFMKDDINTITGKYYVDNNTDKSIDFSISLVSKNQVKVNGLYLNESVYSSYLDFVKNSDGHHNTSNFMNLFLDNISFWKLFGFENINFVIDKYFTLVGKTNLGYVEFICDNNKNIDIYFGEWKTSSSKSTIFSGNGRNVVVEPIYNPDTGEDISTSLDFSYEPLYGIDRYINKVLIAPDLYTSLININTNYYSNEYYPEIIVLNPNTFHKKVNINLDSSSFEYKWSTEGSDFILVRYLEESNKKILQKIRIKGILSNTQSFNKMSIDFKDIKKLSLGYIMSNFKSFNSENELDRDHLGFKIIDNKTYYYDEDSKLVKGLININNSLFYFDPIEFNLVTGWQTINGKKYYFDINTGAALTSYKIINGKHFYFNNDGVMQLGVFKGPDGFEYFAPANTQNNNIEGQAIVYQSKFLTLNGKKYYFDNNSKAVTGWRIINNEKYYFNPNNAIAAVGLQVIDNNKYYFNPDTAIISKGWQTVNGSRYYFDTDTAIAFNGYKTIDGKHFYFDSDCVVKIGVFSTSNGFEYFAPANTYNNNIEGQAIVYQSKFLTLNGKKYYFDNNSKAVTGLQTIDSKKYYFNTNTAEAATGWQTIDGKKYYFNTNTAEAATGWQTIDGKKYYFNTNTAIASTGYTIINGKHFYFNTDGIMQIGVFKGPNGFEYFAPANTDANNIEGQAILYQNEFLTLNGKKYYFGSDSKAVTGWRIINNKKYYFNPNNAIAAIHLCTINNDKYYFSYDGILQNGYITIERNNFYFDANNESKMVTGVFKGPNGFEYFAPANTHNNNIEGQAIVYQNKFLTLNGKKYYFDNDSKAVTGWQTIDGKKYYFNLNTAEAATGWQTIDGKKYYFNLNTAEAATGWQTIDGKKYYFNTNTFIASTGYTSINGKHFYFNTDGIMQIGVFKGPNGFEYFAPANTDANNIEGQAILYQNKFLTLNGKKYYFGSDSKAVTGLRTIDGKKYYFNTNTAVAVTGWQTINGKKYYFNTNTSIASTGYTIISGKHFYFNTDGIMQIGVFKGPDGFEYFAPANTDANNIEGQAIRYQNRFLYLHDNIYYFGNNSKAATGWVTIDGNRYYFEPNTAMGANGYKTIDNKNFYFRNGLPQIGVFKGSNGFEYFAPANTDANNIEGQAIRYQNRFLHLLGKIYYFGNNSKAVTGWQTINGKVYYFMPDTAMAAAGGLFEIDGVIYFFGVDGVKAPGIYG
- test-summary: SPR (Biacore 3000), VHH over immobilized TcdA, 1:1 fit
Parameter: koff. Scope: all listed entries.
quantity-name: koff (s⁻¹)

binder="A26.8-T103R (VHH, not shown: small tags and cut ends) VHH: QVKLEESGGGLVQAGGSLRLSCAASERTFSRYPVAWFRQAPGAEREFVAVISSTGTSTYYADSVKGRFTISRDNAKVTVYLQMNNLKREDTAVYFCAVNSQRRRLQDPNEYDYWGQGTQVTVSS" test_value=0.014
binder="A26.8-T56R, Q101K, T103R (VHH, not shown: small tags and cut ends, also called lead triple mutant; best triple mutant) VHH: QVKLEESGGGLVQAGGSLRLSCAASERTFSRYPVAWFRQAPGAEREFVAVISSTGRSTYYADSVKGRFTISRDNAKVTVYLQMNNLKREDTAVYFCAVNSKRRRLQDPNEYDYWGQGTQVTVSS" test_value=0.0241
